Please respond with reported minimal effective dose for every item in the list.
- Test system: multifocal ventricular arrhythmia
- Assay procedure: Antiarrhythmic effect in dogs with ventricular arrhythmia after coronary artery ligation
- Type: in vivo
- Particulars: Canis lupus familiaris, iv; lowest effective dose normalizing the cardial rhythm; given intravenously; about 16 hours after ligation of the anterior descendent branch of the left coronary artery; under neuroleptanalgesia; read-out: Antiarrhythmic effects in dogs LED in mg/kg body weight
Numeric only. Scale: mg/kg

Q: Return reported minimal effective dose; argument: Cc1cccc(C)c1NC(=O)C1(N(C)C)CCN([C@@H]2CCC[C@H]2O)CC1 (relative stereo)
A: 0.08

Q: Likewise for Cc1cccc(C)c1NC(=O)C1(N(C)C)CCN(CC(O)CN(Cc2ccccc2)Cc2ccccc2)CC1 (stereo not shown) ?
A: 0.31

Q: Also check CCN(CC)C1(C(=O)Nc2c(C)cccc2C)CCN([C@@H]2CCCC[C@H]2O)CC1 (relative stereo)
A: 0.63

Q: Next molecule up: COC1CNCCC1N1CCC(C(=O)Nc2c(C)cccc2C)(N(C)C)CC1 (stereo not shown)
A: 0.63

====

- System: multifocal ventricular arrhythmia
- Assay procedure: Antiarrhythmic effect in dogs with ventricular arrhythmia after coronary artery ligation
- Type: in vivo
- Particulars: Canis lupus familiaris, iv; lowest effective dose normalizing the cardial rhythm; given intravenously; about 16 hours after ligation of the anterior descendent branch of the left coronary artery; under neuroleptanalgesia; read-out: Antiarrhythmic effects in dogs LED in mg/kg body weight
Assay endpoint: minimal effective dose (mg/kg)
Lab book: enter the figure in mg/kg, no units written.

Q: Look at this compound and give its reported minimal effective dose. Cc1cccc(C)c1NC(=O)C1(N(C)C)CCNCC1 [compound 71]
A: 1.25

Q: What about Cc1cc(N(C)C)cc(C)c1NC(=O)C1(N(C)C)CCN([C@@H]2CCCC[C@H]2O)CC1 (relative stereo) [compound 125] ?
A: 0.08

Q: Okay, and Cc1cccc(C)c1NC(=O)C1(N(C)C)CCN([C@@H]2CCCC[C@H]2O)CC1 (relative stereo) [compound 89] ?
A: 0.04

Q: What do you have for CCN(CC)C1(C(=O)Nc2c(C)cccc2C)CCN([C@@H]2CCC[C@H]2O)CC1 (relative stereo) [compound 92] ?
A: 0.31

Q: Proceed to Cc1cccc(C)c1NC(=O)C1(N(C)C)CCN(C2CCCC2)CC1 [compound 130]
A: 0.16

Q: Same read-out for Cc1cccc(C)c1NC(=O)C1(N(C)C)CCN(C(C)C)CC1 [compound 132] ?
A: 0.16

Q: Same thing, different compound: Cc1cccc(C)c1NC(=O)C1(N(C)C)CCN([C@H]2CCC[C@@H]2NCCO)CC1 (relative stereo) [compound 231]
A: 0.16

Q: Moving on to CO[C@@H]1CCCC[C@H]1N1CCC(C(=O)Nc2c(C)cccc2C)(N(C)C)CC1 (relative stereo) [compound 18]
A: 0.08

====

Could you please report measured minimal effective dose for the items listed next?
- System: multifocal ventricular arrhythmia
- Assay procedure: Antiarrhythmic effect in dogs with ventricular arrhythmia after coronary artery ligation
- Format: in vivo
- Particulars: Canis lupus familiaris, iv; lowest effective dose normalizing the cardial rhythm; given intravenously; about 16 hours after ligation of the anterior descendent branch of the left coronary artery; under neuroleptanalgesia; read-out: Antiarrhythmic effects in dogs LED in mg/kg body weight
Write the answer as a number in mg/kg, unit excluded.

Q: Which minimal effective dose is reported for this compound? C=CCN1CCC(C(=O)Nc2c(C)cccc2C)(N(C)C)CC1
A: 0.31

Q: Next: CCNC1(C(=O)Nc2c(C)cccc2C)CCN(C(C)C)CC1
A: 0.63

Q: Here is the next compound: CCCN1CCC(C(=O)Nc2c(C)cccc2C)(N(C)C)CC1
A: 0.16

Q: Now try Cc1cccc(C)c1NC(=O)C1(N(C)C)CCN(CC2CC2)CC1 .
A: 0.16

Q: Another compound to check: Cc1cccc(C)c1NC(=O)C1(N(C)C)CCN([C@H]2CC[C@@H](O)C[C@@H]2O)CC1
A: 0.31

Q: Note, next up: Cc1cccc(C)c1NC(=O)C1(N(C)C)CCN(C2CCNCC2)CC1
A: 0.16

Q: Entry to check: Cc1cccc(C)c1NC(=O)C1(N(C)C)CCN([C@H]2CCCC[C@@H]2NC(N)=O)CC1 (relative stereo)
A: 0.04

Q: Try the compound CCN(CC)CCCC(C)N1CCC(C(=O)Nc2c(C)cccc2C)(N(C)C)CC1 (stereo not drawn)
A: 1.25

Q: What about this compound? CCCCN1CCC(C(=O)Nc2c(C)cccc2C)(N(C)C)CC1
A: 0.16

Q: Same read-out for CCN1CCC(C(=O)Nc2c(C)cccc2C)(N(C)C)CC1 ?
A: 0.63

Q: Note, next up: CCN(CC)C1(C(=O)Nc2c(C)cccc2C)CCN(C(C)C)CC1
A: 0.63

Q: Please give the result for CCN(CC)C1(C(=O)Nc2c(C)cccc2C)CCN(C2CCCC2)CC1 too.
A: 0.16

Q: How about this compound: CCOC(=O)N1CCC(N2CCC(C(=O)Nc3c(C)cccc3C)(N(C)C)CC2)C(OC)C1 (stereo not drawn)
A: 0.16

Q: # repeat for CC(=O)N[C@H]1CCC[C@@H]1N1CCC(C(=O)Nc2c(C)cccc2C)(N(C)C)CC1 (relative stereo)
A: 0.08

Q: Please give the result for CCN(C)C1(C(=O)Nc2c(C)cccc2C)CCN(C(C)C(N)=O)CC1 (stereo not drawn) too.
A: 1.25

Q: Do the same for CCN(CC)C1(C(=O)Nc2cc(Cl)ccc2C)CCN(C(C)C)CC1 please
A: 0.31

Q: Also Cc1cccc(C)c1NC(=O)C1(N(C)C)CCN(CC(O)CO)CC1 (stereo not drawn) ?
A: 0.31

Q: # iterate: CCN(CC)CCN1CCC(C(=O)Nc2c(C)cccc2C)(N(C)C)CC1
A: 0.31

====

- Tested on: multifocal ventricular arrhythmia
- Assay procedure: Antiarrhythmic effect in dogs with ventricular arrhythmia after coronary artery ligation
- Format: in vivo
- Particulars: Canis lupus familiaris, iv; lowest effective dose normalizing the cardial rhythm; given intravenously; about 16 hours after ligation of the anterior descendent branch of the left coronary artery; under neuroleptanalgesia; read-out: Antiarrhythmic effects in dogs LED in mg/kg body weight
Where a name gives a salt, the structure may show the parent alone.
Assay endpoint: minimal effective dose (mg/kg)
Give the value, in units of mg/kg, as a plain number.

Q: Field request: minimal effective dose | item: Cc1cccc(C)c1NC(=O)C1(N(C)C)CCN([C@@H]2CCC[C@H]2NCc2ccccc2)CC1 (relative stereo) [compound 129]
A: 0.08

Q: Next: Cc1cccc(C)c1NC(=O)C1(N(C)C)CCN(CCO)CC1 [compound 167]
A: 0.31

Q: Repeat with Cc1cccc(C)c1NC(=O)C1(N(C)C)CCN([C@H]2CCC[C@@H]2N)CC1 (relative stereo) [compound 217]
A: 0.31

Q: Another: Cc1cccc(C)c1NC(=O)C1(N(C)C)CCN([C@@H]2CCC[C@H]2N(CCO)Cc2ccccc2)CC1 (relative stereo) [compound 225]
A: 0.08

Q: Item: Cc1cccc(C)c1NC(=O)C1(N(C)C)CCN([C@@H]2CCNC[C@H]2O)CC1 (relative stereo) [compound 210]
A: 0.16

Q: Queued: Cc1cccc(C)c1NC(=O)C1(N2CCOCC2)CCN([C@@H]2CCCC[C@H]2O)CC1 (relative stereo) [compound 127]
A: 0.31

Q: What do you get for CCN(CC)C1(C(=O)Nc2c(C)cccc2C)CCN(C2CCCCC2)CC1 [compound 141] ?
A: 0.16

Q: Further, for CCN(CC)C1(C(=O)Nc2cc(Cl)ccc2C)CCN(C2CCCC2)CC1 [compound 166, dihydrochloride hemihydrate] ?
A: 0.63

Q: And what about the compound CCN(C)C1(C(=O)Nc2c(C)cccc2C)CCN(C(C)C)CC1 [compound 138] ?
A: 1.25

Q: Please do the same for CCN1CCC(O)C(N2CCC(C(=O)Nc3c(C)cccc3C)(N(C)C)CC2)C1 (stereo not drawn) [compound 212] as well.
A: 0.31

Q: Moving on to the next compound: CCN(C)C1(C(=O)Nc2c(C)cccc2C)CCNCC1 [compound 73]
A: 0.63

Q: Repeat with Cc1cccc(C)c1NC(=O)C1(N)CCN(C2CCCC2)CC1 [compound 190]
A: 1.25

Q: Same question for CCN(CC)C1(C(=O)Nc2c(C)cccc2C)CCN(C(C)COC)CC1 (stereo not drawn) [compound 140] please.
A: 0.31

Q: Further, for Cc1cccc(C)c1NC(=O)C1(N(C)C)CCN(CC(O)CN)CC1 (stereo not drawn) [compound 191] ?
A: 1.25

Q: What would you report for Cc1cccc(C)c1NC(=O)C1(N(C)C)CCN([C@H]2CNCC[C@@H]2O)CC1 (relative stereo) [compound 211] ?
A: 0.63
